- Test system: C33A
- measurementProtocol: Primary qHTS to identify gynecologic anti-cancer compounds using libraries of approved drugs and bioactive compounds (AID 1345084); also: % is scaled to controls: 0 for no effect and ±100 for the full control effect; nearly all actives have a fitted effect of over 55% in size
- particulars: Gynecologic cancer cell panel viability, ATPlite luminescence, 48 h; series mostly up to 57.5 µM
Inconclusive results are not listed. The source made the active and inactive calls. Calls follow the shape of the dose curve; as a rule, active = well fitted cell-killing curve with a large enough effect; inconclusive = small, poorly fitted or top-dose-only effect, or effect the other way; inactive = flat fitted curve, though single readings scatter.
Select the matching outcome among yes (1) for active, no (0) for inactive

Outcome? COC(=O)[C@H]1[C@H]2C[C@@H]3c4[nH]c5cc(OC)ccc5c4CCN3C[C@H]2C[C@@H](OC(=O)/C=C/c2ccc(O)c(OC)c2)[C@@H]1OC
no (0)

---
// return assay outcome for Cc1ccc(Cl)c(OCC(O)CNC(C)(C)C)c1 (stereo not drawn)
no (0)

What would you report for CN1CC(=O)N2[C@H](c3ccc4c(c3)OCO4)c3[nH]c4ccccc4c3C[C@@H]2C1=O ?
no (0)

What about this compound? CCOC(=O)c1cc(=O)c2c(OCC(COc3cccc4oc(C(=O)OCC)cc(=O)c34)OC(=O)[C@@H](N)CCCCN)cccc2o1
no (0)

Now try CC(C)(C)c1cc(C=O)cc(C(C)(C)C)c1O .
no (0)

Ok, now O=C(O)Cn1cnnn1
no (0)

----------
- measurementProtocol: qHTS of pediatric cancer cell lines to identify multiple opportunities for drug repurposing: Primary screen for control Hh wild type fibroblast cells (AID 1347106);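 also: % is scaled to controls: 0 for no effect and ±100 for the full control effect; a drop in luminescence marks cytotoxicity and a rise apparent proliferation; nearly all actives have a fitted effect of over 55% in size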
- particulars: Hh wild-type fibroblast viability, CellTiter-Glo luminescence, 48 h; series mostly up to 46 µM
Records with an inconclusive call do not appear. The source made the active and inactive calls. Calls follow the shape of the dose curve; as a rule, active = well fitted cell-killing curve with a large enough effect; inconclusive = small, poorly fitted or top-dose-only effect; inactive = flat fitted curve, though single readings scatter.
assayReadout: activity change, negative = cytotoxic

Examples from the recorded data:
Data request, read-out activity change, negative = cytotoxic, for CC(=O)Nc1ccc(S(=O)(=O)Nc2cc(C)on2)cc1
inactive

Same lookup for CCN(CC)CC(=O)OCC(=O)[C@@]1(O)CC[C@H]2[C@@H]3CCC4=CC(=O)CC[C@]4(C)[C@H]3[C@@H](O)C[C@@]21C , please.
inactive

What about CC(=O)OCC(=O)[C@@]1(O)[C@H](OC(C)=O)C[C@H]2[C@@H]3CCC4=CC(=O)C=C[C@]4(C)[C@@]3(F)[C@@H](O)C[C@@]21C ?
inactive

Entry to check: CCCc1ccc(OCC(=O)N2CCN(C(=O)COc3ccc(CCC)cc3OC)CC2)c(OC)c1
inactive

Proceed to Clc1ccc2c(c1)Nc1ccccc1S2
inactive

Field entry: CC(=O)Nc1c(I)c(NC(C)=O)c(I)c(C(=O)O)c1I
inactive

# repeat for CCCc1ncc(C(=O)O)s1
inactive

Ok, now CCCC(=O)Nc1ccc(O)c(C(C)=O)c1
inactive

Okay, here is my list. What is activity change, negative = cytotoxic for each of these?
1. COC(=O)c1cc(Cl)c(NC(C)=O)cc1OC
2. CCCCC(CC)CNC(=O)CC(C)OC(=O)CCC(=O)O (stereo not given)

inactive
inactive

----------
- measurementProtocol: Cell Viability - LYMP2-019 (AID 973);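 also: cells exposed to compound for 24 h at 37 °C; nearly all actives have a fitted effect of over 55% in size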; also: potency is read from the fitted curve at half-maximal effect
- particulars: LYMP2-019 lymphoblastoid cell line viability; series mostly up to 92.2 µM
Records with an inconclusive call do not appear. Calls of active or inactive are those of the source. Calls come from the whole dose curve; as a rule, active = well fitted cell-killing curve with a large enough effect; inconclusive = small, poorly fitted or top-dose-only effect; inactive = flat fitted curve, though single readings scatter.
assayReadout: Potency

Some molecules with recorded Potency:
Reported Potency, molecule O=C(NO)c1ccccc1 : ____
inactive

Entry O=C(Oc1ccccc1)c1ccccc1O please
inactive

Same for CC(C)C(C)(C)C(C)(C)C(C)(C)S
inactive

Another molecule to check: Cc1ccc(O)cc1
inactive

Next up: COc1cc(C=O)ccc1O
inactive

Consider next the molecule CCCCCCCCCCCCCCCC[n+]1ccccc1 in the same way.
20 µM (active)

Please give Potency, item by item, for the list that follows.
1. CCCC(=O)c1cc(O)c(O)cc1O
2. Cc1cc(C(C)(C)C)c(O)c(C(C)(C)C)c1
3. Brc1ccccc1-c1ccccc1
4. CC(C)(C)c1ccc(O)c(O)c1
5. CCCCC(CC)COC(=O)c1ccccc1C(=O)O (configuration not stated)
6. Nc1cccc2c(N)cccc12

1. inactive
2. inactive
3. inactive
4. 39.8 µM (active)
5. inactive
6. inactive

----------
- Test system: CRL-7250
- measurementProtocol: Cytotoxic Profiling of Annotated Libraries Using Quantitative High-Throughput Screening (AID 1296008); also: % is scaled to controls: 0 for no effect and ±100 for the full control effect; nearly all actives have a fitted effect of over 60% in size
- particulars: Five cell lines viability, CellTiter-Glo ATP luminescence, 48-72 h; stronger effect = lower value
Records with an inconclusive call do not appear.
assayReadout: max response (%)
Numbers only, in %.

Solved entries:
Entry CC(=O)O[C@H]1CC[C@@]2(C)C(=CC[C@@H]3[C@@H]2CC[C@]2(C)C(C(C)=O)=CC[C@@H]32)C1 : reported max response = ?
-17.3

Query O=C(O)[C@H](O)[C@@H](O)[C@H](O[C@@H]1O[C@H](CO)[C@H](O)[C@H](O)[C@H]1O)[C@H](O)CO next
-2.55

Same for C[C@H]1NCc2cc(-c3ccc4c(=O)c(C(=O)O)cn(C5CC5)c4c3OC(F)F)ccc21
-16.7

# input for lookup
Suppose we examine the compound CC1(C)O[C@@H]2C[C@H]3[C@@H]4C[C@H](F)C5=CC(=O)C=C[C@]5(C)[C@@]4(F)[C@@H](O)C[C@]3(C)[C@]2(C(=O)CO)O1 ; what max response value has been reported?
-4.6

----------
- Tested on: CP215
- measurementProtocol: qHTS profiling for inhibitors of Plasmodium falciparum proliferation (AID 504749); also: nearly all actives have a fitted effect of over 60% in size; also: potency is read from the fitted curve at half-maximal effect
- particulars: P. falciparum in erythrocytes, SYBR Green DNA, 72 h; series mostly up to 28.7 µM
Inconclusive results are not listed. The source made the active and inactive calls. The call rests on the fitted dose curve; in most records, active means well fitted inhibition curve with a large enough effect; inconclusive means small, poorly fitted or top-dose-only effect; inactive means flat fitted curve, though single readings scatter.
assayReadout: Potency

Some solved cases for reference:
Entry under review: Nc1ncnc2nc[nH]c12 . Reported Potency?
inactive

Also CCCCCCCCCCCCCCCC[n+]1ccccc1 , if possible.
13.5 µM (active)

Record: CCCCCCCCCCCCCC[N+](C)(C)C
8.49 µM (active)

What about O=S(=O)(O)c1ccc2nc(-c3ccccc3)[nH]c2c1 ?
inactive

Read the next record carefully.
What does the data say about its Potency? Entry: O=C(Nc1ccc(Cl)cc1)Nc1ccc(Cl)c(Cl)c1
6.75 µM (active)

----------
- targetOfAssay: Parathyroid hormone/parathyroid hormone-related peptide receptor (Homo sapiens) (UniProt Q03431)
- Sequence (Q03431 whole entry, looked up): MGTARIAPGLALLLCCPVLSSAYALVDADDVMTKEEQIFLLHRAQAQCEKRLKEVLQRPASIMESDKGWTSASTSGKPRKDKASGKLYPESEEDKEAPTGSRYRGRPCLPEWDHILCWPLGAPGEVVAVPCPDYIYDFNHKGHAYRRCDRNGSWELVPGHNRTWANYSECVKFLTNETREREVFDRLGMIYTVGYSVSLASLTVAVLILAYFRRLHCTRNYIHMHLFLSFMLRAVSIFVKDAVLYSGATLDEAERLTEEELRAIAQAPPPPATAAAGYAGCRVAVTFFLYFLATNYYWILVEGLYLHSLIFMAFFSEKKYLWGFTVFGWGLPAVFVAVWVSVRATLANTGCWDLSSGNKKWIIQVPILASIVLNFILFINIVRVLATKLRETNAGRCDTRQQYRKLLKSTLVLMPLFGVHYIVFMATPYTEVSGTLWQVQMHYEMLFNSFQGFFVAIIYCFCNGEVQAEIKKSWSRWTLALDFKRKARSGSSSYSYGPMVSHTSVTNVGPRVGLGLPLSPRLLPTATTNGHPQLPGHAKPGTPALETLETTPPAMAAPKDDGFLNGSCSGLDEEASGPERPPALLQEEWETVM
- measurementProtocol: qHTS for PTHR1 Agonists: Optimization Screen against the NCGC LOPAC library (AID 1347079);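 also: GloSensor cAMP luminescence in HEK-293 GP2 cells expressing human PTHR1 with IBMX; 0% is about no effect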
- particulars: HEK293 GP2 PTHR1 GloSensor cAMP luminescence, 1 h; series mostly up to 57.1 µM
Active and inactive are the calls of the source. Calls come from the whole dose curve; as a rule, active = well fitted activation curve with a large enough effect; inconclusive = small, poorly fitted or top-dose-only effect; inactive = no such curve, though single readings can be large or run the other way.
assayReadout: outcome

Any idea what its outcome is? The compound is CCN(CC)CCNC(=O)c1ccc(NS(C)(=O)=O)cc1
inactive

Further, for COC(=O)C1=CO[C@@H](O)[C@@H]2C(CO)=CC[C@H]12 ?
inactive

Check Nc1ncnc2n[nH]c(Nc3ccc(F)cc3)c12 too.
inactive

----------
- measurementProtocol: qHTS of pediatric cancer cell lines to identify multiple opportunities for drug repurposing: Primary screen for SJ-GBM2 cells (AID 1347091);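 also: plate controls were DMSO neutral control for no effect and bortezomib for full effect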
- particulars: SJ-GBM2 viability, CellTiter-Glo luminescence, 48 h; series mostly up to 46 µM
Inconclusive results are not listed. Activity calls are given as the source filed them. Calls come from the whole dose curve; as a rule, active = well fitted cell-killing curve with a large enough effect; inconclusive = small, poorly fitted or top-dose-only effect; inactive = no such curve, though single readings can be large or run the other way.
API: response.call in y = active, n = inactive

Which result was noted for this compound in the test: O=C1Nc2ccccc2C1(c1ccc(O)cc1)c1ccc(O)cc1
n

Continue with the next compound.
Test call, this compound: CC(C)(C)c1nnc(NS(=O)(=O)c2ccccc2)s1
n

----------
- Test system: astro
- measurementProtocol: Drug repurposing screens with cells derived from glioblastoma tumor samples (AID 1345199); also: nearly all actives have a fitted effect of over 40% in size
- particulars: viability, ATP luminescence, 48 h; series mostly up to 45.9 µM
Inconclusive results are not listed. The source made the active and inactive calls. Calls follow the shape of the dose curve; as a rule, active = well fitted inhibition curve with a large enough effect; inconclusive = small, poorly fitted or top-dose-only effect; inactive = flat fitted curve, though single readings scatter.
Use one of these outcomes when replying: active, inactive

# lookup: test call for C1N2CN3CN1CN(C2)C3
inactive

Next up: O=C(NN1CCCC1)NS(=O)(=O)c1ccc(Cl)cc1
inactive

# iterate: CCCCCC1Nc2cc(C(F)(F)F)c(S(N)(=O)=O)cc2S(=O)(=O)N1 (stereo not drawn)
inactive

Note, next up: O=C(O)CCCC[C@@H]1SC[C@@H]2NC(=O)N[C@@H]21
inactive

Would you kindly repeat that for C[N+](C)(CCOc1ccccc1)Cc1cccs1 ?
inactive

Similarly, CC1(C)S[C@@H]2[C@H](NC(=O)C(c3ccccc3)S(=O)(=O)O)C(=O)N2[C@H]1C(=O)O (stereo partly drawn) ?
inactive

Now give it for CCCCCCCCCCCCCCCCCCNC(=O)OC1CCN(C(=O)OC[C@H](COC(=O)N(Cc2cccc[n+]2CC)C(=O)c2ccccc2OC)OC)CC1 too.
active

Now consider CN(C)C(=O)CNC(=O)Cc1ccccc1 .
inactive

Now the compound CCCCCCCCCCCC[N+](C)(C)Cc1ccccc1
active

Param item: CN=C(N)NC(=O)Nc1c(C)cccc1C
inactive

Next: C1=CC2C3C=CC(C3)C2C1 (stereo not drawn)
inactive

Param item: CCOC(=O)NNc1ccc(N(CC)CC(C)O)nn1 (stereo not drawn)
inactive

What about this compound? O=C(O)c1[nH]n(-c2ccc(S(=O)(=O)O)cc2)c(=O)c1N=Nc1ccc(S(=O)(=O)O)cc1
inactive

Try the compound Oc1ccc(CCNCCCCCCNCCc2ccccc2)cc1O
inactive

Lookup CCCCCC[C@@H](CCC)C(=O)O
inactive

Also check CO/N=C(/C(=O)N[C@@H]1C(=O)N2C(C(=O)OCOC(=O)C(C)(C)C)=C(C)CS[C@H]12)c1csc(N)n1
inactive
